Assay: Effective permeability of the compound in PBS/EtOH buffer (7:3) at 100 ug/ml after 18 hrs by PAMPA-BBB assay
Assay type: ADME
Conditions: read-out: Peff
Measured Papp at 18 h, 100 ug/ml by item
I only need the number, in nm/s, no unit after it.

COC(=O)C(C)c1ccc(-c2ccc(NCc3cc(N(C)C)ccc3O)cc2)c(F)c1 (configuration not stated); 54.8

Query: Tell me Papp at 18 h, 100 ug/ml reported for COC(=O)C(C)c1ccc(-c2ccccc2NCc2cc(N(C)C)ccc2O)c(F)c1 (configuration not stated)
Reply: 40.9

* * *

Target: Amine oxidase [flavin-containing] A (Homo sapiens, UniProt P21397)
Test: Inhibition of recombinant human MAOA expressed in baculovirus infected in BTI cells at 10 uM using kynuramine as substrate after 30 mins by fluorescence based assay relative to control
Details: 0.5 h
Parameter threshold = 20%. Response is criterion met when inhibition at 10 µM meets or exceeds it, else criterion not met.

Here are 2 molecules together with their reported answers.
COC(=O)C(C)c1ccc(-c2ccc(NCc3ccc(OC)cc3O)cc2)c(F)c1 (stereo not drawn); criterion not met
COC(=O)C(C)c1ccc(-c2ccc(NCc3ccccn3)cc2)c(F)c1 (stereo not drawn); criterion met

Query: Can COC(=O)C(C)c1ccc(-c2ccc(NCc3cc(CN(C)C)cc(OC)c3O)cc2)c(F)c1 (stereo not drawn) be said to have inhibition at 10 µM at or above 20%?
Reply: criterion not met

Query: Can COC(=O)C(C)c1ccc(-c2ccc(NCc3cc(C)ccc3O)cc2)c(F)c1 (stereo not drawn) be said to have inhibition at 10 µM at or above 20%?
Reply: criterion met

Query: Can COC(=O)C(C)c1ccc(-c2ccc(NCc3cccc(OC)c3O)cc2)c(F)c1 (stereo not drawn) be said to have inhibition at 10 µM at or above 20%?
Reply: criterion not met

Query: Can COC(=O)C(C)c1ccc(-c2ccccc2NCc2cc(N(C)C)ccc2O)c(F)c1 (stereo not drawn) be said to have inhibition at 10 µM at or above 20%?
Reply: criterion met

Query: Can COC(=O)C(C)c1ccc(-c2ccc(NCc3cc(N(C)C)ccc3O)cc2)c(F)c1 (stereo not drawn) be said to have inhibition at 10 µM at or above 20%?
Reply: criterion met

* * *

Measured inhibition at 10 µM by item
Molecular target: Amine oxidase [flavin-containing] B (Homo sapiens)
Sequence (P27338 whole entry): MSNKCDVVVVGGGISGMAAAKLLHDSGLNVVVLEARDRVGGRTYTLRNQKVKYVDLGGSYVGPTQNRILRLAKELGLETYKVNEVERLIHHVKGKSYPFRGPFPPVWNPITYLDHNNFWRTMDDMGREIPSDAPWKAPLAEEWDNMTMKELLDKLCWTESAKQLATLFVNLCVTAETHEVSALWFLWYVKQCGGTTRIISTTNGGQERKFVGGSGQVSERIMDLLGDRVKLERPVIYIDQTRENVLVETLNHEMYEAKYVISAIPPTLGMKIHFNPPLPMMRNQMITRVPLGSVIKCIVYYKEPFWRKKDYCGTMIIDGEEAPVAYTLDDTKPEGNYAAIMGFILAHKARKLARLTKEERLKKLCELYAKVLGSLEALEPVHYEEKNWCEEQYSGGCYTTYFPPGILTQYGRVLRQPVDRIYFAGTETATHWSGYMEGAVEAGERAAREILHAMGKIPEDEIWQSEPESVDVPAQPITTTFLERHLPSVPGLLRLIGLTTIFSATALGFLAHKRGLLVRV
Experiment: Inhibition of recombinant human MAOB expressed in baculovirus infected in BTI cells at 10 uM using kynuramine as substrate after 30 mins by fluorescence based assay relative to control
Conditions: 0.5 h
I only need the number, in %, no unit after it.

COC(=O)C(C)c1ccc(-c2ccc(NCc3cc(CN(C)C)cc(OC)c3O)cc2)c(F)c1 (stereo not given); 36
COC(=O)C(C)c1ccc(-c2ccc(NCc3cc(Br)cc(Br)c3O)cc2)c(F)c1 (stereo not given); 16.4

Query: Tell me inhibition at 10 µM reported for COC(=O)C(C)c1ccc(-c2ccccc2NCc2cc(N(C)C)ccc2O)c(F)c1 (stereo not given)
Reply: 34.6

Query: Tell me inhibition at 10 µM reported for COC(=O)C(C)c1ccc(-c2ccc(NCc3cccc(OC)c3O)cc2)c(F)c1 (stereo not given)
Reply: 11.7

* * *

Measured Activity by item
Target: Amyloid-beta precursor protein (Homo sapiens) (UniProt P05067)
Sequence (P05067 whole entry): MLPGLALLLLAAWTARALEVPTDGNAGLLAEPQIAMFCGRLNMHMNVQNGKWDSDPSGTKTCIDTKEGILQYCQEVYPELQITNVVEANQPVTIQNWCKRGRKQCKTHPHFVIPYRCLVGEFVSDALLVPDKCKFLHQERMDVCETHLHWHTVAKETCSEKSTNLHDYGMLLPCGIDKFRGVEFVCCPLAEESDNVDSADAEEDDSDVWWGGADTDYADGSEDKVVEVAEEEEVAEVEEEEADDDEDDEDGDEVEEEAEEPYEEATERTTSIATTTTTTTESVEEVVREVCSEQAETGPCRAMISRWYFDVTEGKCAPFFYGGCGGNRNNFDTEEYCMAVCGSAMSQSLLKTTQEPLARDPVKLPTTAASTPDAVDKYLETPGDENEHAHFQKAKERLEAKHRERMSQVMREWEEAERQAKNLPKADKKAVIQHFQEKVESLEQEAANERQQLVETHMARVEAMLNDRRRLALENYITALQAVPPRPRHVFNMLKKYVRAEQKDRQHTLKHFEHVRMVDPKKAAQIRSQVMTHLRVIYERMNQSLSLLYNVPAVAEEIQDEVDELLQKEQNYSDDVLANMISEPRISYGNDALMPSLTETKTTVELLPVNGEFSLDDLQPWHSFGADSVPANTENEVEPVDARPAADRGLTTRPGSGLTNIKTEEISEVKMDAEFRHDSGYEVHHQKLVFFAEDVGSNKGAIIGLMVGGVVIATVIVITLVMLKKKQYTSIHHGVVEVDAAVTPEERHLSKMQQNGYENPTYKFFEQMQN
Experiment: Disaggregation of self-induced amyloid beta (1 to 42) (unknown origin) preformed fibrils at 25 uM measured after 24 hrs by thioflavin-T fluorescence assay relative to control
I only need the number, in %, no unit after it.

Worked cases, answers included:
COC(=O)C(C)c1ccc(-c2ccc(NCc3cc(CN4CCCCC4)ccc3O)cc2)c(F)c1 (stereo not given); 30.2
COC(=O)C(C)c1ccc(-c2ccc(NCc3cc(CN(C)C)ccc3O)cc2)c(F)c1 (stereo not given); 51.2
COC(=O)C(C)c1ccc(-c2ccc(NCc3ccc(OC)cc3O)cc2)c(F)c1 (stereo not given); 25.6
COC(=O)C(C)c1ccc(-c2ccc(NCc3cc(N(C)C)ccc3O)cc2)c(F)c1 (stereo not given); 91.1

# evaluate next
Query: Tell me Activity reported for COC(=O)C(C)c1ccc(-c2ccc(NCc3cc(NC(C)=O)ccc3O)cc2)c(F)c1 (stereo not given)
Reply: 27.1

* * *

Target: Amyloid-beta precursor protein (Homo sapiens) (UniProt P05067)
Test: Inhibition of Cu2+-induced HFIP-pretreated amyloid beta (1 to 42) (unknown origin) aggregation at 25 uM measured after 24 hrs by thioflavin-T fluorescence assay relative to control
Parameter threshold = 40%. Response is TRUE when inhibition meets or exceeds it, else FALSE.

Query: Can COc1cc(/C=C/C(=O)CC(=O)/C=C/c2ccc(O)c(OC)c2)ccc1O be said to have inhibition at or above 40%?
Reply: FALSE

Query: Can COC(=O)C(C)c1ccc(-c2ccc(NCc3nc(C)c(C)nc3C)cc2)c(F)c1 (stereo not given) be said to have inhibition at or above 40%?
Reply: FALSE

Query: Can COC(=O)C(C)c1ccc(-c2ccc(NCc3cc(OC)ccc3O)cc2)c(F)c1 (stereo not given) be said to have inhibition at or above 40%?
Reply: TRUE

* * *

Target: Amyloid-beta precursor protein (Homo sapiens)
Experiment: Inhibition of HFIP-pretreated amyloid beta (1 to 42) (unknown origin) self-aggregation at 25 uM after 24 hrs by thioflavin-T fluorescence assay relative to control
Measured inhibition by item
I only need the number, in %, no unit after it.

COC(=O)C(C)c1ccc(-c2ccc(NCc3cc(N(C)C)ccc3O)cc2)c(F)c1 (stereo unspecified); 96.3

Query: Tell me inhibition reported for COC(=O)C(C)c1ccc(-c2ccc(NCc3cc(OC)ccc3O)cc2)c(F)c1 (stereo unspecified)
Reply: 73.6

Query: Tell me inhibition reported for COC(=O)C(C)c1ccc(-c2ccc(NCc3ccccc3O)cc2)c(F)c1 (stereo unspecified)
Reply: 24.7

Query: Tell me inhibition reported for COC(=O)C(C)c1ccc(-c2ccc(NCc3cccc(CN4CCCCC4)c3O)cc2)c(F)c1 (stereo unspecified)
Reply: 48.8

Query: Tell me inhibition reported for COC(=O)C(C)c1ccc(-c2ccc(NCc3cc(CN(C)C)cc(OC)c3O)cc2)c(F)c1 (stereo unspecified)
Reply: 58.2

Query: Tell me inhibition reported for COC(=O)C(C)c1ccc(-c2ccc(NCc3cc(CN4CCCCC4)ccc3O)cc2)c(F)c1 (stereo unspecified)
Reply: 29.4

* * *

Biological target: Amyloid-beta precursor protein (Homo sapiens) (UniProt P05067)
Assay: Inhibition of HFIP-pretreated amyloid beta (1 to 42) (unknown origin) self-aggregation at 25 uM after 24 hrs by thioflavin-T fluorescence assay relative to control
Parameter threshold = 40%. Response is condition met when inhibition meets or exceeds it, else condition not met.

Here are 5 molecules together with their reported answers.
COC(=O)C(C)c1ccc(-c2ccc(NCc3cc(CN(C)C)ccc3O)cc2)c(F)c1 (centres undefined); condition met
COC(=O)C(C)c1ccc(-c2ccc(NCc3cc(Br)ccc3O)cc2)c(F)c1 (centres undefined); condition not met
COC(=O)C(C)c1ccc(-c2ccc(NCc3cc(Cl)ccc3O)cc2)c(F)c1 (centres undefined); condition met
COC(=O)C(C)c1ccc(-c2ccc(NCc3cc(C)ccc3O)cc2)c(F)c1 (centres undefined); condition met
COC(=O)C(C)c1ccc(-c2ccc(NCc3cccc(CN(C)C)c3O)cc2)c(F)c1 (centres undefined); condition met

Query: Can COC(=O)C(C)c1ccc(-c2ccccc2NCc2cc(N(C)C)ccc2O)c(F)c1 (centres undefined) be said to have inhibition at or above 40%?
Reply: condition met

Query: Can COC(=O)C(C)c1ccc(-c2ccc(NCc3ccc(OC)cc3O)cc2)c(F)c1 (centres undefined) be said to have inhibition at or above 40%?
Reply: condition not met

Query: Can COC(=O)C(C)c1ccc(-c2ccc(NCc3ccccn3)cc2)c(F)c1 (centres undefined) be said to have inhibition at or above 40%?
Reply: condition met

* * *

Target: Amine oxidase [flavin-containing] A (Homo sapiens, UniProt P21397)
Sequence (P21397 whole entry): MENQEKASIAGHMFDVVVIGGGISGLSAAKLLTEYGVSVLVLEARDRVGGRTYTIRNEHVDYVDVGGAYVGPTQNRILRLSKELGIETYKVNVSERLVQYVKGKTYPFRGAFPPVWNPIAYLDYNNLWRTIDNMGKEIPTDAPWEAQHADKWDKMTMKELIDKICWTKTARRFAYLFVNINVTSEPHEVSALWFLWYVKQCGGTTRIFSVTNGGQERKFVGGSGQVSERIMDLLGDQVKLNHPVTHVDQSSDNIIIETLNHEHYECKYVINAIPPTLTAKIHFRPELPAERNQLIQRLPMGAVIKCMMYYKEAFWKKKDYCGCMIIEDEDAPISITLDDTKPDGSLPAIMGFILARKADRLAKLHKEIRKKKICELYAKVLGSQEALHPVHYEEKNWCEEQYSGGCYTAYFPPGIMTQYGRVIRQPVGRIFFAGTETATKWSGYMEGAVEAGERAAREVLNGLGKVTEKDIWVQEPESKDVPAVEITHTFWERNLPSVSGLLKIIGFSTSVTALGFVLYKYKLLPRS
Assay: Inhibition of recombinant human MAOA expressed in baculovirus infected in BTI cells at 10 uM using kynuramine as substrate after 30 mins by fluorescence based assay relative to control
Settings: 0.5 h
Parameter threshold = 20%. Response is yes when inhibition at 10 µM meets or exceeds it, else no.

Here are 2 compounds together with their reported answers.
COC(=O)C(C)c1ccc(-c2ccc(NCc3cc(Br)cc(Br)c3O)cc2)c(F)c1 (stereo unspecified); no
COC(=O)C(C)c1ccc(-c2ccc(NCc3cc(CN(C)C)ccc3O)cc2)c(F)c1 (stereo unspecified); yes

Now look at this one.
Query: Can COC(=O)C(C)c1ccc(-c2ccc(NCc3cc(Br)ccc3O)cc2)c(F)c1 (stereo unspecified) be said to have inhibition at 10 µM at or above 20%?
Reply: yes
